molecules and their reported Avg % ID, Stomach
Assay: Biodistribution of radiometal-DOTA-BBN conjugates in CF1 normal mice
Conditions: 1 hour post-injection
measurement_name: Avg % ID, Stomach

molecule: CSCC[C@H](NC(=O)[C@H](CC(C)C)NC(=O)[C@H](Cc1cnc[nH]1)NC(=O)CNC(=O)[C@@H](NC(=O)[C@H](C)NC(=O)[C@H](Cc1c[nH]c2ccccc12)NC(=O)[C@H](CCC(N)=O)NC(=O)CN1CCN(CC(=O)O)CCN(CC(=O)O)CCN(CC(=O)O)CC1)C(C)C)C(N)=O [149Pm-DOTA-0-BBN[7-14]NH2]
observed: 0.02 ± 0.05 % ID
//
molecule: CSCC[C@H](NC(=O)[C@H](CC(C)C)NC(=O)[C@H](Cc1c[nH]cn1)NC(=O)CNC(=O)[C@@H](NC(=O)[C@H](C)NC(=O)[C@H](Cc1c[nH]c2ccccc12)NC(=O)[C@H](CCC(N)=O)NC(=O)CCCCCCCCCCNC(=O)CN1CCN(CC(=O)O)CCN(CC(=O)O)CCN(CC(=O)O)CC1)C(C)C)C(N)=O [177Lu-DOTA-11-Aun-BBN[7-14]NH2] [metal not drawn]
observed: 0.64 ± 0.35 % ID
//
molecule: CSCC[C@H](NC(=O)[C@H](CC(C)C)NC(=O)[C@H](Cc1c[nH]cn1)NC(=O)CNC(=O)[C@@H](NC(=O)[C@H](C)NC(=O)[C@H](Cc1c[nH]c2ccccc12)NC(=O)[C@H](CCC(N)=O)NC(=O)CCCCNC(=O)CN1CCN(CC(=O)O)CCN(CC(=O)O)CCN(CC(=O)O)CC1)C(C)C)C(N)=O [111In-DOTA-5-Ava-BBN[7-14]NH2] [metal not drawn]
observed: 0.37 ± 0.16 % ID
//
molecule: CSCC[C@H](NC(=O)[C@H](CC(C)C)NC(=O)[C@H](Cc1c[nH]cn1)NC(=O)CNC(=O)[C@@H](NC(=O)[C@H](C)NC(=O)[C@H](Cc1c[nH]c2ccccc12)NC(=O)[C@H](CCC(N)=O)NC(=O)CCCCNC(=O)CN1CCN(CC(=O)O)CCN(CC(=O)O)CCN(CC(=O)O)CC1)C(C)C)C(N)=O [177Lu-DOTA-5-Ava-BBN[7-14]NH2] [metal not drawn]
observed: 0.73 ± 1.33 % ID
